Origin of values: patent US20230091225A1

system-under-test: UniProt P10275
protocol-description: Degradation of androgen receptor (AR) protein in VCaP cells by Western blot
Format: cell-based
reported-conditions: percentage of degraded AR at 100 nM, VCaP cells, 16 h
property-name: inhibition at 0.1 µM

Consider the worked cases shown below.
N#Cc1ccc(O[C@H]2CC[C@H](NC(=O)c3ccc(N4CCC(N5CCC6(CCN(c7cc8c(cc7F)C(=O)N(C7CCC(=O)NC7=O)C8=O)C6)C5)CC4)nn3)CC2)cc1Cl (stereo partly drawn): > 80%
CC1(C)[C@H](Oc2ccc(C#N)c(Cl)c2)C(C)(C)[C@H]1N1Cc2nc(C#CC3CN(C4CCN(c5ccc6c(c5)C(=O)N(C5CCC(=O)NC5=O)C6=O)CC4)C3)ccc2C1=O (stereo partly drawn): < 25%

From here, focus on the item given below.
Bench note, UniProt P10275: entry N#Cc1ccc(O[C@H]2CC[C@H](NC(=O)c3ccc(N4CC5CN(C[C@@H]6[C@H]7CN(c8ccc9c(c8)C(=O)N(C8CCC(=O)NC8=O)C9=O)C[C@@H]67)CC5C4)nn3)CC2)cc1Cl (stereo partly drawn) , its inhibition at 0.1 µM = 50 to 79%

----------
system-under-test: androgen receptor (AR) (Homo sapiens)
Sequence (P10275 whole entry): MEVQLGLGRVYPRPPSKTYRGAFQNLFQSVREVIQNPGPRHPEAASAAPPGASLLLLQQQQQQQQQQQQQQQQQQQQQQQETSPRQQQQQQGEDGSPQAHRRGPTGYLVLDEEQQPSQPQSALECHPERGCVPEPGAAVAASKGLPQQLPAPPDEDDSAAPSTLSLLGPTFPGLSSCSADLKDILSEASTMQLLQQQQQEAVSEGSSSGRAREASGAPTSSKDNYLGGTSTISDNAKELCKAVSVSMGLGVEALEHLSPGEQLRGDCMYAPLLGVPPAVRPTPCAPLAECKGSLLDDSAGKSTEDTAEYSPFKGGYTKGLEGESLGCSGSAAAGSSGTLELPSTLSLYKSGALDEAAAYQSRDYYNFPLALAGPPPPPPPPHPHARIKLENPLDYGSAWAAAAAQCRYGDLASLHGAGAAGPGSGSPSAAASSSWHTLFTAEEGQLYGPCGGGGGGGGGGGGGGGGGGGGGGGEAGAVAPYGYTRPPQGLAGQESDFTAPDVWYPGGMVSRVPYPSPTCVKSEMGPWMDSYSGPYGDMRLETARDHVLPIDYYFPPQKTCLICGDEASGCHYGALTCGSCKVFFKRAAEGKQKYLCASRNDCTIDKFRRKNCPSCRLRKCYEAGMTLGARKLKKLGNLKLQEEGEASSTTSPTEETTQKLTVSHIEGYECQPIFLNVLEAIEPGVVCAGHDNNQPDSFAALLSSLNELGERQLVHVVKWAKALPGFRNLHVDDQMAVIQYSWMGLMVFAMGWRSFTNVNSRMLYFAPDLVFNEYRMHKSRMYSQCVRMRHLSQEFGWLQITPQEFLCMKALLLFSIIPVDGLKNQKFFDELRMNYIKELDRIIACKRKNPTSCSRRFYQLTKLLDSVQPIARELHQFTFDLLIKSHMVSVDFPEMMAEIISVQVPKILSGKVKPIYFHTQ
protocol-description: Degradation of androgen receptor (AR) protein in VCaP cells by ELISA
Format: cell-based
reported-conditions: VCaP, AR degradation, VCaP cells, 16 h, ELISA, Table 3-1; read-out: Dmax (%)
Here the recorded Dmax is given for each entry.

N#Cc1ccc(O[C@H]2CC[C@H](NC(=O)c3cnc(N4CCC(CN5CCC6(CC5)CN(c5ccc7c(c5)C(=O)N(C5CCC(=O)NC5=O)C7=O)C6)CC4)nc3)CC2)cc1Cl (some centres unmarked): > 80%

Input CC1(C)[C@H](Oc2ccc(C#N)c(Cl)c2)C(C)(C)[C@H]1N1Cc2nc(C#CC3CC(N4CC5CN(c6cc7c(cc6F)C(=O)N(C6CCC(=O)NC6=O)C7=O)CC5C4)C3)ccc2C1=O (some centres unmarked) . Output Dmax: 60 to 80%

Dmax reported for this compound N#Cc1ccc(O[C@H]2CC[C@H](NC(=O)c3cn([C@H]4CC[C@H](CN5CCC6(CC5)CN(c5ccc7c(c5)C(=O)N(C5CCC(=O)NC5=O)C7=O)C6)CC4)nn3)CC2)cc1Cl (some centres unmarked) : > 80%

Noted for N#Cc1ccc(O[C@H]2CC[C@H](NC(=O)c3ccc(N4CCN(C5CC6(CCN(c7cc8c(cc7F)C(=O)N(C7CCC(=O)NC7=O)C8=O)CC6)C5)CC4)nn3)CC2)cc1Cl (some centres unmarked) : its Dmax reads > 80%

So, C[C@@H]1CN(C[C@@H]2[C@H]3CN(c4cc5c(cc4F)C(=O)N(C4CCC(=O)NC4=O)C5=O)C[C@@H]23)CCN1c1cnc(C(=O)N[C@H]2CC[C@H](Oc3ccc(C#N)c(Cl)c3)CC2)cn1 (some centres unmarked) ? Its Dmax was 60 to 80%

----------
system-under-test: androgen receptor (AR) (Homo sapiens)
protocol-description: Degradation of androgen receptor (AR) protein in VCaP cells by ELISA
Type: cell-based
reported-conditions: AR degradation, VCaP cells, 16 h, ELISA, Table 3-1; read-out: DC50
Recorded DC50 for the following compounds

N#Cc1ccc(O[C@H]2CC[C@H](NC(=O)c3ccc(N4CCC5(CCN(CC6CCN(c7cc8c(cc7F)C(=O)N(C7CCC(=O)NC7=O)C8=O)CC6)CC5)CC4)nn3)CC2)cc1Cl (some centres unmarked) [Compound 261]: < 10 nM

DC50 recorded for this compound, N#Cc1ccc(OC2CCC(NC(=O)c3ncn(C4CCC(CN5CCC6(CC5)CN(c5cc7c(cc5F)C(=O)N(C5CCC(=O)NC5=O)C7=O)C6)CC4)n3)CC2)cc1Cl (centres unmarked) [Compound 85] , is 10 to 100 nM

What the record says about N#Cc1ccc(O[C@H]2CC[C@H](NC(=O)c3cnc(N4CC5(CCN(C6CCN(c7cc8c(cc7F)C(=O)N(C7CCC(=O)NC7=O)C8=O)CC6)CC5)C4)nc3)CC2)cc1Cl (some centres unmarked) [Compound 273] : DC50 is 10 to 100 nM

Recorded DC50 (compound N#Cc1ccc(O[C@H]2CC[C@H](NC(=O)c3ccc(N4CCC5(CCN(C6CCN(c7cc8c(cc7F)C(=O)N(C7CCC(=O)NC7=O)C8=O)CC6)C5)C4)nn3)CC2)cc1Cl (some centres unmarked) [Compound 166] ): < 10 nM

compound CC1(C)[C@H](Oc2ccc(C#N)c(Cl)c2)C(C)(C)[C@H]1N1Cc2nc(C#CC3CCC(N4CC5(CCN(c6ccc7c(c6)C(=O)N(C6CCC(=O)NC6=O)C7=O)C5)C4)CC3)ccc2C1=O (some centres unmarked) [Compound 368] , DC50 observed: 100 to 300 nM
